assay: KKLEB cell viability reduction – uHTS, fluorescence assay plates, cytotoxicity control for CF NF-kB inhibitor project, primary screen (AID 602141); conditions: KKLEB CF airway cells viability, ATPlite luminescence, overnight; at 5 µM; cells stimulated with P. aeruginosa culture filtrate
The whole screen tested about 360,000 compounds, of which about 1,300 (0.36%) were called active.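 The calls were made as follows: active = corrected activity change at or below -50% at 5 µM; inactive = the rest.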 What follows is part of a selection rich in actives, with near analogues and random picks from the rest.
Write down one outcome, taken from y for active, n for inactive

Task: Short answer needed: outcome of this test for "COc1ccc(-c2cc(C(F)(F)F)nc(S(C)(=O)=O)n2)cc1OC" ?
Result: y

Task: Answer briefly: the call reported for COc1ccc(C2SCCN2S(=O)(=O)c2ccccc2)cc1OC (stereo not given) in this assay.
Result: n

Task: Check the results log: what was the call for "Cc1c(NC(=O)CN(C)CC(=O)Nc2ccc(F)c(F)c2F)c(=O)n(-c2ccccc2)n1C" ?
Result: n

Task: Test call, this compound: "COc1ccc(C2=NO[C@@H]3C(=O)N(Cc4ccccc4)C(=O)[C@H]23)cc1OC"
Result: n

Task: Please state the recorded outcome for this compound: COc1ccc(C2CC(=O)C=C(NCC3CCCO3)C2)cc1 (stereo not given)
Result: n

* * *

Answer each item with its documented activity change (cytotoxicity).
experiment: KKLEB cell viability reduction – uHTS, fluorescence assay plates, cytotoxicity control for CF NF-kB inhibitor project, primary screen (AID 602141); settings: KKLEB CF airway cells viability, ATPlite luminescence, overnight; at 5 µM; active compounds read low; cells stimulated with P. aeruginosa culture filtrate
The campaign covered roughly 360,000 compounds. About 1,300 (0.36%) were called active. What follows is part of a selection rich in actives, with near analogues and random picks from the rest.
Numbers only; they are read as %.

Task: Specify activity change (cytotoxicity) for "O=C(Nc1ccc(Br)cc1)c1cc(S(=O)(=O)Nc2ccccn2)ccc1Cl" and stop.
Result: -6.3

Task: Return activity change (cytotoxicity) for the following compound: "S=C(NN=Cc1ccccn1)Nc1ccccn1"
Result: -63.5

Task: Retrieve activity change (cytotoxicity) measured for "CCN(CC)CCn1c(/N=C/c2cc(Br)ccc2O)nc2ccccc21" and print it.
Result: 2.8

Task: Please list activity change (cytotoxicity) recorded for the compound "CC(C)Nc1nc(NCCOc2ccccc2Cl)c2sccc2n1"
Result: -5.6

Task: Tell me measured activity change (cytotoxicity) for "CC(C)C[C@H]1CN=C(Nc2ccccc2)N1CC1CCCCC1" please.
Result: 3.3

Task: Give the value of activity change (cytotoxicity) reported for the following: CCCOc1ccc(C(=O)C(CCC(CNCC)C(=O)c2ccc(OCCC)cc2)CNCC)cc1 (stereo unspecified)
Result: -58.6

Task: Quick one: give measured activity change (cytotoxicity) for "Oc1ccc(Br)cc1/C=N/Nc1ccccn1"
Result: -94.7

Task: Specify activity change (cytotoxicity) for "CC(C)CCOc1ccc(C(=O)C[N+]2(C)CCOCC2)cc1" and stop.
Result: 1.8

Task: Annotate the compound CCNC(=O)CC1C(=O)N(c2ccc(F)cc2)C(=O)N1CCc1sccc1C (stereo unspecified) with its measured activity change (cytotoxicity).
Result: 15.4

Task: Tell me activity change (cytotoxicity) reported for Cc1ccc(C(NC(=O)C2CCN(CCOc3ccc(Cl)cc3Cl)CC2)c2ccccn2)cc1 (stereo unspecified)
Result: -0.6

Task: Given the compound "CS(=O)(=O)N(CC(=O)N/N=C/c1ccccn1)c1ccc(Oc2ccccc2)cc1" , write its reported activity change (cytotoxicity).
Result: 1.8

* * *

experiment: KKLEB cell viability reduction – uHTS, fluorescence assay plates, cytotoxicity control for CF NF-kB inhibitor project, primary screen (AID 602141); conditions: KKLEB CF airway cells viability, ATPlite luminescence, overnight; at 5 µM; active compounds read low; cells stimulated with P. aeruginosa culture filtrate
In all, about 360,000 compounds went through this assay and about 1,300 (0.36%) were called active. The sample holds actives, similar compounds and a random draw of the others, so the mix is not that of the screen.
observable: activity change (cytotoxicity) (%)
Numbers only; they are read as %.

Task: Please give the documented activity change (cytotoxicity) of "CCCNC(=O)c1c(Cl)cnn1-c1ccc(C)cc1"
Result: 8.9

Task: Give the measured activity change (cytotoxicity) for "O=S(=O)(Nc1ccccc1N1CCOCC1)c1ccc(Cl)s1"
Result: 1.7

Task: Read the entry "COc1cccc(OC)c1C(=O)Nc1ccc(Cc2ccncc2)cc1" and write its reported activity change (cytotoxicity).
Result: -3.9

Task: Provide only the value of recorded activity change (cytotoxicity) for "Cc1cccc(-n2ncc(Cl)c(Cl)c2=O)c1"
Result: -97.1

Task: Using known records, supply activity change (cytotoxicity) for "CC(=O)c1ccc(-c2cnc3c(NC=O)cc(-c4cccc(NS(C)(=O)=O)c4)cn23)cc1"
Result: -51.7

Task: Read off the recorded activity change (cytotoxicity) for CCN1CCC(O)(/C=C/c2ccc(C)cc2)C(C(=O)/C=C/c2ccc(C)cc2)C1 (stereo not drawn)
Result: -73.7

Task: Check the records and state activity change (cytotoxicity) for "COc1cc(C(=O)N(C)Cc2cccc(OC)c2OC)ccc1OCC(=O)Nc1cccc(C(F)(F)F)c1"
Result: 7.7

Task: Give recorded activity change (cytotoxicity). "O=C(Nc1ccncc1)c1c(F)cccc1F"
Result: -51.3

Task: Check the records and state activity change (cytotoxicity) for "Nc1c(-c2cccc(Cl)c2)cnn1-c1cccc([N+](=O)[O-])c1"
Result: 4.3

Task: Give recorded activity change (cytotoxicity). "CCCc1ccc(OCCNC(=O)c2ccccc2Br)cc1"
Result: -6.1

Task: Output activity change (cytotoxicity) of "Cc1cc(C)cc(NC(=O)N(C)Cc2ccccc2)c1"
Result: 1.9

Task: Provide activity change (cytotoxicity) value for the following molecule: "O=C(Nc1ccc(S(=O)(=O)N2CCCCCC2)cc1)c1c(F)cccc1F"
Result: 5.1

Task: Respond only with activity change (cytotoxicity) recorded for "CCCSc1nsc(N)n1"
Result: -4.9

Task: Look up activity change (cytotoxicity) of CCOc1ccccc1NS(=O)(=O)c1cc2c3c(c1)C(C)C(=O)N3CCC2 (stereo not drawn) and report it.
Result: 7.2

Task: Please report activity change (cytotoxicity) for the following molecule: CCNC(=O)C1(C)CCCN(C(=O)c2ccc3ccccc3n2)C1 (stereo not drawn)
Result: -5.1

Task: Please list activity change (cytotoxicity) recorded for the molecule "O=S(=O)(O)CCN1CCOCC1"
Result: -2.1

Task: Read off the recorded activity change (cytotoxicity) for "O=C(OC12CC3CC(CC(C3)C1)C2)c1ccc(NCc2cc(O)ccc2O)cc1"
Result: -63.4

Task: Write down activity change (cytotoxicity) measured for item "COc1cc(NC(=O)c2[nH]cnc2C(N)=O)cc(C(=O)Nc2cccc(C(F)(F)F)c2)c1"
Result: -61.7

Task: // Input: "O=C(Nc1ccccc1Cl)c1ccccc1S(=O)(=O)c1ccccc1[N+](=O)[O-]" . Output its activity change (cytotoxicity) only.
Result: 4.2

Task: Give a short answer stating reported activity change (cytotoxicity) for "Cc1ccc(CNC(=O)COc2ccc(S(=O)(=O)NC(C)C)cc2)cc1" .
Result: -0.1

Task: State its activity change (cytotoxicity) for this molecule: "Cc1ccc2c(c1)N(CC(=O)N1CCC(O)CC1)C(=O)CO2"
Result: 7.7

Task: Look up activity change (cytotoxicity) of "O=C(CNC(=O)c1cc(S(=O)(=O)N2CCOCC2)ccc1N1CCCC1)Nc1ccc(F)c(F)c1" and report it.
Result: 8

Task: Give activity change (cytotoxicity) for the following molecule: "O=C(Nc1cccc(Cl)c1)Nc1ccccc1NS(=O)(=O)c1cccs1"
Result: 13.5

* * *

test: KKLEB cell viability reduction – uHTS, fluorescence assay plates, cytotoxicity control for CF NF-kB inhibitor project, primary screen (AID 602141); conditions: KKLEB CF airway cells viability, ATPlite luminescence, overnight; at 5 µM; cells stimulated with P. aeruginosa culture filtrate
The campaign covered roughly 360,000 compounds. About 1,300 (0.36%) were called active.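 The calls were made as follows: active = corrected activity change at or below -50% at 5 µM; inactive = the rest.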 The list comes from a sample in which actives are over-represented; it also holds close analogues and randomly drawn compounds.
// one of active, inactive, no free text

Task: Please state the recorded outcome for this molecule: "CCCCn1c(N)c(N(CC(C)C)C(=O)CN(C)S(=O)(=O)c2ccc(F)cc2)c(=O)[nH]c1=O"
Result: inactive

Task: Could you check what this test reported for "O=C(CCl)Nc1ccc(Sc2ccc(NC(=O)CCl)cc2)cc1" ?
Result: active

Task: Recorded test outcome, item CCOc1ccc(C(=O)NC(C(=O)NCc2ccccn2)C(C)C)cc1 (stereo not given)
Result: inactive

Task: // param item: "O=[N+]([O-])c1cc(S(=O)(=O)Nc2cccc(Cl)c2)ccc1N=Nc1c(O)[nH]c2ccccc12" ; yields the recorded call
Result: active

Task: Which outcome did this test record for the molecule "CCOC(=O)NC(=O)C(=CNc1cccc(OC)c1)C(=O)NC(=O)OCC" ?
Result: inactive

Task: Field: outcome | Entry: "CC(=O)Nc1ccc(SCC(=O)NC(=O)c2ccc(Cl)cc2)cc1"
Result: inactive

Task: Hello, I am checking results. What call was entered for "CCOc1ccc(S(=O)(=O)NCc2ccc3c(c2)OCO3)cc1C" ?
Result: inactive

Task: Tell me the recorded outcome of this test for "O=C(Nc1nnc(SCc2ccccc2Cl)s1)c1cccc([N+](=O)[O-])c1" .
Result: inactive

Task: Please state the recorded outcome for this molecule: "O=C(CCN1CCCCC1)N=Nc1c(O)[nH]c2ccccc12"
Result: inactive

Task: Give the logged outcome of this assay for the following molecule: "O=C(NCc1ccncc1)c1ccc(NS(=O)(=O)c2cccc([N+](=O)[O-])c2)cc1"
Result: inactive
